Measured z-score values are reported for all entries that follow.
- Experimental Protocol: growth rescue of sdo1-depleted yeast, primary screen, S. cerevisiae, bone marrow failure model (AID 817);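 note: z-score against mean and SD of all compound wells on the same plate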
- Condition: S. cerevisiae sdo1-depleted JHY4D growth rescue, OD600; measured here: growth rescue at 24 h; at 10 µM; stronger effect = higher value; pdr5 snq2 efflux-pump mutant strain
About 300 (0.21%) of roughly 140,000 compounds were called active. For the sample, actives were picked, then their nearest neighbours and some compounds at random.
Lab note: jot the number down without any unit.

Here's what some known entries look like.
COc1ccc(OCC(O)CNC(=O)Nc2ccc(Cl)cc2)cc1 (stereo not drawn)
0.68
Cc1ccc(Nc2ccc(C(N)=O)cc2[N+](=O)[O-])cc1
0.28

z-score recorded for this compound, CC(=O)NS(=O)(=O)c1ccc(NC(=O)C2C3C=CC(C3)C2C(=O)O)cc1 (stereo not drawn) , is -0.47

* * *

- Experimental Protocol: growth rescue of sdo1-depleted yeast, primary screen, S. cerevisiae, bone marrow failure model (AID 817);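 note: z-score against mean and SD of all compound wells on the same plate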
- Condition: S. cerevisiae sdo1-depleted JHY4D growth rescue, OD600; measured here: growth rescue at 24 h; at 10 µM; stronger effect = higher value; pdr5 snq2 efflux-pump mutant strain
Out of some 140,000 compounds screened, about 300 (0.21%) were called active. Only a selection was taken, and actives are over-represented in it overall.
Measured z-score values are reported for all entries that follow.
Lab note: jot the number down without any unit.

z-score recorded for this compound, Cc1ccc(/C=N/NC(=O)CNC(=O)COc2ccccc2)o1 , is 1.1

z-score recorded for this compound, Cc1nnnn1/C(=C\c1ccccc1)C(=O)OCC(=O)N1CC2(C)CC1CC(C)(C)C2 (stereo not drawn) , is -0.83

z-score recorded for this compound, Cn1cccc1/C=C1\SC(=S)N(NC(=O)c2ccc(Cl)cc2)C1=O , is -0.65

z-score recorded for this compound, COc1cc(/C=C/C(=O)OCC(=O)Nc2cccc(Oc3ccccc3)c2)ccc1O , is 0.4

z-score recorded for this compound, O=C(COC(=O)/C=C/c1cccc(Cl)c1)NCCc1ccccc1 , is 3.67

z-score recorded for this compound, C/C(=N\NC(=O)c1ccc(NS(=O)(=O)c2cccs2)cc1)c1ccc2ccccc2c1 , is 0.75

z-score recorded for this compound, CCOC(=O)C1=C(c2ccc(OC)cc2)C(=O)c2ccccc2C1=O , is -0.65

z-score recorded for this compound, CN1CCN(C(=O)/C(=C\c2cccs2)NC(=O)c2cccs2)CC1 , is 0.2

z-score recorded for this compound, FC(F)(F)c1cccc(N/N=C/c2ccccc2)c1 , is -1.53

z-score recorded for this compound, COc1ccc(OC(C)C(=O)NCCc2nc3ccccc3[nH]2)cc1 (stereo not drawn) , is -0.04

z-score recorded for this compound, CCOc1ccc(C(=O)NC(=S)Nc2ccc(N3CCOCC3)c(Cl)c2)cc1[N+](=O)[O-] , is -1.28

z-score recorded for this compound, O=S(=O)(NCC1CCCO1)c1cnc(Cl)c(Cl)c1 (stereo not drawn) , is 0.93

z-score recorded for this compound, CCn1c(SCC(=O)N/N=C/C=C/c2ccccc2[N+](=O)[O-])nnc1-c1ccccc1 , is -0.06

z-score recorded for this compound, N/C(=N\OC(=O)N1c2ccccc2Sc2ccccc21)c1ccc(Br)cc1 , is -1.41

z-score recorded for this compound, COc1ccc(/C=C/C(=O)OCC(=O)NCc2cccs2)cc1OC , is 0.67

z-score recorded for this compound, COc1cc(OC)cc(C(=O)NCC(=O)OCc2csc(-c3ccccc3)n2)c1 , is -0.88

z-score recorded for this compound, Cc1[nH]c2ccccc2c1C(=O)COC(=O)C(C)C , is -0.5

z-score recorded for this compound, Cc1ccc(S(=O)(=O)N2CCC(C(=O)N[C@@H](C)C(=O)NCc3ccco3)CC2)cc1 , is 0.16

* * *

- Experimental Protocol: growth rescue of sdo1-depleted yeast, primary screen, S. cerevisiae, bone marrow failure model (AID 817);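 note: z-score against mean and SD of all compound wells on the same plate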
- Condition: S. cerevisiae sdo1-depleted JHY4D growth rescue, OD600 30 h; at 10 µM; stronger effect = higher value; pdr5 snq2 efflux-pump mutant strain
About 300 (0.21%) of roughly 140,000 compounds were called active. This is one part of a sample in which actives are shown more often than they occur.
true (1) means recorded z-score is 1 or above; false (0) means it is below 1.

COc1cc(CC(=O)N/N=C/c2ccccc2)c([N+](=O)[O-])cc1OC
false (0)
O=C(/C=C/c1cccc([N+](=O)[O-])c1)NCCSCc1ccco1
false (0)
COc1ccc(C2=NN(C(=O)c3cccnc3)C(c3ccccc3)C2)cc1 (stereo unspecified)
false (0)

// inclusive: z-score at least 1? input: O=C(NNC1=NCCC1)c1cccc(S(=O)(=O)N2CCCCC2)c1
true (1)

// inclusive: z-score at least 1? input: O=C(Cc1ccc(-c2ccccc2)cc1)NC(c1ccccc1)c1ccccc1
false (0)

// inclusive: z-score at least 1? input: O=S(=O)(/N=C(/Nc1ccccn1)c1ccccc1)c1ccc(Cl)cc1
true (1)

* * *

- Experimental Protocol: growth rescue of sdo1-depleted yeast, primary screen, S. cerevisiae, bone marrow failure model (AID 817);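 note: z-score against mean and SD of all compound wells on the same plate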
- Condition: S. cerevisiae sdo1-depleted JHY4D growth rescue, OD600; measured here: growth rescue at 24 h; at 10 µM; stronger effect = higher value; pdr5 snq2 efflux-pump mutant strain
The whole screen tested about 140,000 compounds, of which about 300 (0.21%) were called active. Only a selection was taken, and actives are over-represented in it overall.
Metric Name: z-score
Lab note: jot the number down without any unit.

Here's what some known entries look like.
Cc1cc(C(=O)NNC(=S)NC(C)c2ccccc2)cs1 (centres undefined)
-0.18
N#C/C(=C\C1=C(N2CCOCC2)C(=C\c2ccccc2)/CC1)C(=O)Nc1ccccc1F
2.72
CC(NC(=O)COC(=O)C1CCN(S(=O)(=O)c2ccccc2C(F)(F)F)CC1)c1ccccc1 (centres undefined)
1.46
COc1cccc(-c2nnc(NC(=O)c3ccc(S(=O)(=O)N(CC(C)C)CC(C)C)cc3)o2)c1
8.93
CCCCNC(=O)CSc1nc2ccc(NC(=O)CSc3nnc(N)s3)cc2s1
-0.52

z-score recorded for this compound, O=C(N/N=C\c1ccc(Br)cc1)c1ccc(Cn2cccn2)o1 , is -0.05

z-score recorded for this compound, C=CCc1ccccc1OCC(=O)N/N=C/c1ccccc1OCC , is 0.43

z-score recorded for this compound, CN(C)c1ccc(Nc2c3c4c(cccc4n(C)c2=O)C(=O)c2ccccc2-3)cc1 , is 10.3

z-score recorded for this compound, Cc1ccccc1C1=NC(C(F)(F)F)(C(F)(F)F)c2c(n(-c3ccc(F)cc3)c(=O)[nH]c2=O)N1 , is 1.23

z-score recorded for this compound, Cc1cccc(C(=O)OCC(=O)Nc2sc3c(c2C#N)CCC3)c1 , is 1.79

z-score recorded for this compound, COc1ccc(NC(=O)CC2C(=O)OCC3CCCCN32)cc1Cl (centres undefined) , is -0.04

z-score recorded for this compound, O=C(NC(=O)N1CCOCC1)c1ccccc1 , is 0.24

z-score recorded for this compound, COc1cc(OC)c(-n2cc(-c3ccc(Cl)cc3)[nH]c2=O)cc1Cl , is 1.29

z-score recorded for this compound, Cc1cccc(C(=O)c2cccc(C)c2)c1 , is -0.6

* * *

- Experimental Protocol: growth rescue of sdo1-depleted yeast, primary screen, S. cerevisiae, bone marrow failure model (AID 817);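 note: z-score against mean and SD of all compound wells on the same plate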
- Condition: S. cerevisiae sdo1-depleted JHY4D growth rescue, OD600 30 h; at 10 µM; stronger effect = higher value; pdr5 snq2 efflux-pump mutant strain
Hit rate of the full screen: of about 140,000 compounds, about 300 (0.21%) were called active. Shown is part of a subset that was picked to be rich in actives.
Measured z-score values are reported for all entries that follow.
Lab note: jot the number down without any unit.

Here's what some known entries look like.
COc1ccc(OC(C)C(=O)NCCc2nc3ccccc3[nH]2)cc1 (stereo not given)
0.82
CCn1c(SCC(=O)N/N=C/C=C/c2ccccc2[N+](=O)[O-])nnc1-c1ccccc1
0.43
CCOc1cccc2c1OC1(CCCCC1)N1N=C(c3cccnc3)CC21 (stereo not given)
13.5
c1cncc(-c2nnc3n2C2(CCCCC2)Cc2ccccc2-3)c1
-0.05

# context switch: different compound, same z-score
z-score recorded for this compound, O=[N+]([O-])c1cccc(C2=NCCS2)c1 , is 0.63

* * *

- Experimental Protocol: growth rescue of sdo1-depleted yeast, primary screen, S. cerevisiae, bone marrow failure model (AID 817);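 note: z-score against mean and SD of all compound wells on the same plate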
- Condition: S. cerevisiae sdo1-depleted JHY4D growth rescue, OD600; measured here: growth rescue at 24 h; at 10 µM; stronger effect = higher value; pdr5 snq2 efflux-pump mutant strain
Out of some 140,000 compounds screened, about 300 (0.21%) were called active. The sample holds actives, similar compounds and a random draw of the others, so the mix is not that of the screen.
1 (yes) means recorded z-score is -0.2 or above; 0 (no) means it is below -0.2.

CC(Oc1ccccc1F)C(=O)NN (stereo not drawn)
0 (no)
Cc1ccc(S(=O)(=O)C2C(=O)NC3(C)CC2c2ccccc2O3)cc1 (stereo not drawn)
1 (yes)
CC(=O)Nc1ccc(SCC(=O)Nc2ccccc2Oc2ccccc2)cc1
1 (yes)
COc1ccc(C2Nc3ccccc3C(=O)N2c2ccc(Cl)cc2)cc1Cn1cc([N+](=O)[O-])cn1 (stereo not drawn)
0 (no)
O=C(Nc1ccccc1Cl)c1ccccc1S(=O)(=O)c1ccccc1[N+](=O)[O-]
1 (yes)

// inclusive: z-score at least -0.2? input: COC(=O)c1ccc(NC(=O)CSc2nncc3ccc(OC)c(OC)c23)cc1
0 (no)

// inclusive: z-score at least -0.2? input: CCOc1cccc2c1OC1(CCCCC1)N1N=C(c3cccnc3)CC21 (stereo not drawn)
1 (yes)

// inclusive: z-score at least -0.2? input: Clc1cccc(CN2COc3c(cc(Cl)c4cccnc34)C2)c1
1 (yes)

// inclusive: z-score at least -0.2? input: CN(C)C(CNC(=O)c1ccc(S(=O)(=O)NCc2ccco2)cc1)c1ccccc1 (stereo not drawn)
1 (yes)

// inclusive: z-score at least -0.2? input: O=C(c1ccc(S(=O)(=O)c2ccccc2)cc1)N1CCCCCC1
1 (yes)
